Known fractional viability of a selection of molecules
# System: TYKNU
# assayText: fractional viability relative to vehicle; higher = less growth inhibition
# conditionInfo: 10uM; 72 h; genotype: sgCTRLA1 (non-targeting control)
In all, about 2,000 compounds were measured (“fractional viability relative to vehicle”: median about 0.91, lowest 2% from about 0.045 on). Many of the other results were omitted from the sample, so the lowest values are more common in it than they were.
Keep the answer to the number alone.

Example molecules with recorded fractional viability:
CN[C@@H]1C[C@H]2O[C@@](C)([C@@H]1OC)n1c3ccccc3c3c4c(c5c6ccccc6n2c5c31)C(=O)NC4 [Staurosporine] ... 0.0269
CCN1CCN(C(=O)Cc2ccc(Nc3ncc(F)c(Nc4ccc(C(=O)Nc5ccccc5Cl)cc4)n3)cc2)CC1 [Aurora A Inhibitor I] ... 0.0775
CCN(Cc1ccc(Cl)nc1)/C(=C/[N+](=O)[O-])NC [Nitenpyram] ... 0.862

Here is the next item to consider.
Q. Looking for the measured fractional viability of `Cc1sc2c(c1C)C(c1ccc(Cl)cc1)=N[C@@H](CC(=O)OC(C)(C)C)c1nnc(C)n1-2` , can you help?
A. 0.394

---

# Test system: TYKNU
# assayText: fractional viability relative to vehicle; TYKNU is a high-grade serous ovarian cancer line; higher = less growth inhibition
# conditionInfo: 2uM; 72 h; genotype: sgCTRLA1 (non-targeting control)
The full ranking holds about 2,000 compounds; the median of “fractional viability relative to vehicle” is about 0.91, and the lowest 2% start at about 0.045. The entries come from a sample that favours the lowest values as a whole.
Checkbox rule: fractional viability lower than 1 = class 1; fractional viability not lower than 1 = class 0.

Observe how each entry below is paired with its result.
Cn1c(COP(=O)(NCCBr)NCCBr)cnc1[N+](=O)[O-] ... class 0
[O-][n+]1ccccc1[S-].[O-][n+]1ccccc1[S-].[Zn+2] [Zinc Pyrithione] ... class 1
c1ccc([C@@H]2C[C@H]2NC2CCNCC2)cc1 ... class 1
CC(C)N(CCNC(=O)CN1CCCC1=O)C(C)C [Pramiracetam] ... class 0
Cc1sc2c(c1C)C(c1ccc(Cl)cc1)=N[C@@H](CC(N)=O)c1nnc(C)n1-2 ... class 1
Cc1cccc([C@H](C)c2c[nH]cn2)c1C [Dexmedetomidine] ... class 0
Cc1cc(C(C#N)c2ccc(Cl)cc2)c(Cl)cc1NC(=O)c1cc(I)cc(I)c1O (configuration not stated) [Closantel Sodium] ... class 0
COc1ccc(C[C@H]2NC[C@H](O)[C@H]2OC(C)=O)cc1 [Anisomycin] ... class 1

Q. Does CCN(Cc1ccc(Cl)nc1)/C(=C/[N+](=O)[O-])NC [Nitenpyram] have fractional viability strictly under 1?
A. class 0

Q. Does C[C@@H]1O[C@@H](O[C@H]2C[C@@H](O)[C@]3(CO)[C@H]4[C@H](O)C[C@]5(C)[C@@H](C6=CC(=O)OC6)CC[C@]5(O)[C@@H]4CC[C@]3(O)C2)[C@H](O)[C@H](O)[C@H]1O [Ouabain] have fractional viability strictly under 1?
A. class 1

Q. Does N#C[C@H](O[C@@H]1O[C@H](C(=O)O)[C@@H](O)[C@H](O)[C@H]1O)c1ccccc1 [Laetrile] have fractional viability strictly under 1?
A. class 0

Q. Does O=C1CCC[C@@H]2[C@H]3CCCN4CCC[C@@H](CN12)[C@@H]34 [(+)-Matrine] have fractional viability strictly under 1?
A. class 0

Q. Does CC(C)=CCC[C@]1(C)C=Cc2c(O)c3c(c(CC=C(C)C)c2O1)O[C@]12C(=C[C@@H]4C[C@H]1C(C)(C)O[C@@]2(C/C=C(/C)C(=O)O)C4=O)C3=O [Gambogic Acid] have fractional viability strictly under 1?
A. class 1

Q. Does CC(C)(C)[C@]1(O)CC2OC(=O)CC23C(=O)OC2OC(=O)[C@H](O)C231 (some centres not stated) [Bilobalide] have fractional viability strictly under 1?
A. class 0

Q. Does Cc1cc(C(C#N)c2ccc(Cl)cc2)c(Cl)cc1NC(=O)c1cc(I)cc(I)c1O (configuration not stated) [Closantel] have fractional viability strictly under 1?
A. class 0
